For each of the binders below, state its OD450.
Molecular target: T1, human MSLN-R1-his protein (human, UniProt Q13421 296-390)
T1 construct: Region 1 of human mesothelin, made in HEK293E cells, His-tagged; also called human MSLN-R1 protein; hMSLN-R1-his; not shown: His tag
T1 chain: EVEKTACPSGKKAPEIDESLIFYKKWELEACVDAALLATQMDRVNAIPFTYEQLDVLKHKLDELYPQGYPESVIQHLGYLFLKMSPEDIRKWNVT
Assay: ELISA on coated MSLN-R1; antibody 0.01 nM
Numbers only, in OD450.

S009-F8-8.22 (antibody, human IgG1, kappa, V domains shown) VH: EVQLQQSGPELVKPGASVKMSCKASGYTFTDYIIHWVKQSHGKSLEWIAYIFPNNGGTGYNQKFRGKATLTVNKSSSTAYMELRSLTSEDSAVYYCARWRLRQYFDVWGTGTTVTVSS VL: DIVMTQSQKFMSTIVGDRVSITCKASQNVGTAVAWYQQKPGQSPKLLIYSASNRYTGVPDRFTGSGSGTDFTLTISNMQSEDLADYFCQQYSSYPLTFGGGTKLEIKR
0.61

Here is the next item to consider.
Query: In one line, give reported OD450 of the entry S009-F8-7.5 (antibody, human IgG1, kappa, V domains shown) VH: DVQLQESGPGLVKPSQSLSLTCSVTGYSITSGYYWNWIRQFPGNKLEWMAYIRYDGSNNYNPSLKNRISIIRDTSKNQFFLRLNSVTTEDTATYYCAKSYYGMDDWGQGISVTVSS VL: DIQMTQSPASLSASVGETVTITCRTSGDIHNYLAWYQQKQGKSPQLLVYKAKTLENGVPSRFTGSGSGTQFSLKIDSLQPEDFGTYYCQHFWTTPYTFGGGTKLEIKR .
Result: 0.04
